Molecular target: T1, PcrV (aa136-257).6xhis (Pseudomonas aeruginosa)
T1 chain: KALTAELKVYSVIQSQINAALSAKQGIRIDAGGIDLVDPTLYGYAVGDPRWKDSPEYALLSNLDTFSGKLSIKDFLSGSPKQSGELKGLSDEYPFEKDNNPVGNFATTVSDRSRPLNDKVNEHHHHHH
Experiment: SPR (Biacore T200), mAb captured via anti-human Fc, PcrV injected, 37 C
Values of kon strictly less than 200000 M⁻¹ s⁻¹ map to label 1, and values of at least 200000 M⁻¹ s⁻¹ map to label 0.

binder="H1H29329P (antibody, V domains shown) VH: EVQLVESGGGLVQPGGSLRLSCAASGFTFSDHEMNWVRQAPGKGLEWISYIGSGVVTMYYADSVRGRFTISRDNAKKTLYLQMNSLRAEDTAVYYCARDRGYYFGSEAFHYWGQGTLVTVSS VL: DIQMTQSPSTLSASVGDRVTITCRASQSISNWLAWYQQKPGKAPKLLIYKSSSLESGVPSRFSGSGSGTEFTLTISSLQPDDFATYYCQQYKSYSLTFGGGTKVEIKR" class_label="label 1"
binder="REGN3977 (antibody, V domains shown, also called Control III; REGN3977-Control III) VH: QVQLKQSGPGLVQPSQSLSITCTVSGFSLTSYGVHWVRQSPGKGLEWLGVIWSGGDTDYNAAFISRLSISKDNSKSQLFFKMNSLRATDTAIYYCARNRGDIYYDFTYAMDYWGQGTSVTVSS VL: DIQMTQSPASLSASVGETVTITCRASGNIQNYLAWYQQTQGKSPQLLVYSAKTLADGVPSRFSGSGSGTQYSLKINSLQPEDFGSYYCQHFWSTPYTFGGGTKLEIKR" class_label="label 0"
binder="H1H29332P (antibody, V domains shown) VH: EVQLVESGGDLVQPGGSLRLSCKASGFTFSTFAMNWVRQAPGRGLEWVSAIGASGYSTYYVDSMKGRFTISRDNSKNTLYLQMNSLGAEDTAVYYCAKEYSVSSNYYYGMDVWGQGTTVTVSS VL: DIQMTQSPSSLSASVGDRVTITCRASQTIRRYLNWYQQKAGKAPKLLIYAASSLLSGVPSRFSASGSGTDFTLTISSLQPEDFSTYYCQQTYSIPITFGQGTRLEIKR" class_label="label 1"
binder="H1H29336P (antibody, V domains shown) VH: EVQLVESGGGLVQPGGSLRLSCAASGFTFSSYAMTWVRQAPGKGLEWVSSIRGSGYSSDYADSVKGRFTISRDNSENTVYLQMNRLRAEDTAVYYCAKERSVTAYYYYGMDVWGQGTTVTVSS VL: DIQLTQSPSFLSASVGDRVTITCWASQDISSFLTWYQQKPGIAPKLLIYTASTLQSGVPSRFSGSGSGTEFTLTISSLQPEDFATYYCQQLKSYPLTFGGGTKVEIKR" class_label="label 0"
binder="REGN3514 (antibody, V domains shown, also called Control I; Control I-REGN3514) VH: EMQLLESGGGLVQPGGSLRLSCAASGFTFSSYAMNWVRQAPGEGLEWVSAITISGITAYYTDSVKGRFTISRDNSKNTLYLQMNSLRAGDTAVYYCAKEEFLPGTHYYYGMDVWGQGTTVTVSS VL: AIQMTQSPSSLSASVGDRVTITCRASQGIRNDLGWYQQKPGKAPKLVIYSASTLQSGVPSRFSGSGSGTDFTLSISSLQPDDFATYYCLQDYNYPWTFGQGTKVEIKR" class_label="label 0"
binder="H1H29339P (antibody, V domains shown) VH: EVQLVESGGDLVQPGGSLRLSCAASGFTFNTYAMNWVRQAPGKGLEWVAVIGGSGYSTNYADSVKGRFTISRDNSKNTLYLQMNSLRTEDTAVYYCAKEGNIVALYWYFDLWGRGTLVTVSS VL: DIQMTQSPSSLSASVGDRVTITCRASQSISRYLNWYQQKPGKAPKLLIYAASSLQGGVPSKFSGSGSGTDFTLTISSLQPEDFATYYCQQSSTTPLTFGGGTKVEIKR" class_label="label 0"
